All figures here come from a melting point compilation (Tetko et al.; mined from patent text by program, amines drawn as free bases though some values may be those of a salt).

melting point for assorted molecules

molecule	melting point
O=C(CCl)N1CCSC1CCc1ccccc1O (stereo unspecified)	98 °C
Cn1ncnc1COc1nn2c(-c3ccccc3)nnc2cc1N1CCOCC1	210 to 211 °C
COCCCNS(=O)(=O)NC(=O)/C(C)=C/c1ccc(OC(C)C)cc1Oc1ncc(C(F)(F)F)cc1Cl	120 to 121 °C
Cn1nc(C=NO)nc1NCCCOc1cccc(CN2CCCCC2)c1	173 to 174 °C
O=C(CNc1ccc(Cl)cc1)c1cc(O)c(O)c([N+](=O)[O-])c1	177 to 178 °C
CC(=O)c1c(NC(=O)C(C)(C)C)cccc1C(F)(F)F	142 °C
COc1cc2c(Nc3ccc(Cl)cc3F)ncnc2cc1OCCN1CCN(C)CC1	173 to 175 °C
C[C@@H]1Cc2cc(N3C[C@H](CN=[N+]=[N-])OC3=O)ccc2N1C(=O)OCc1ccccc1	192 to 193 °C
O=C(CN1C(=O)c2ccccc2C1=O)NNC(=O)c1ncn2c1[C@@H]1CCCN1C(=O)c1sccc1-2	> 260 °C
CC1=NC(c2ccc(F)cc2F)c2ccccc2CN1C (single isomer, unassigned; (+))	137 to 138 °C
CC(C)CCC(=O)Nc1ccc2oc3c(c2c1)CCCC3	146 °C
O=Cc1cccc(/C=C/c2ccc3ccc(Cl)cc3n2)c1	146 to 150 °C
O=C1c2ccc(Cl)cc2C(=O)N1c1ccccc1	187 to 189 °C
N#CCNC(=O)COc1ccc(Cl)cc1Cl	107 to 108 °C
COC(=O)C(=O)c1ccc(OCCOc2ccc3ccccc3c2)c(F)c1	136 to 138 °C
Cc1cc(C2=NNC(=O)CC2)c2c(c1)N(C)C(=O)CO2	266 to 270 °C
CCOc1nc2c(cnn2CC)nc1C(=O)NN1CCCCC1	114 to 115 °C
O=C(CCc1ccc(I)cc1)Cn1ccnc1	124 to 125 °C
NCCCc1cccnc1C(N)=O	153 to 156 °C
CCN(CC)CCCCC1CCN(CCNC(=O)N2c3cc(Cl)ccc3C(=O)Nc3cccnc32)CC1	157 °C
COc1cc2cc(C)sc2c(Cl)c1Cl	113 to 114 °C
